Target: T1, UNK ZnF1-6 (called full-length) (human, UniProt Q9C0B0 30-357)
T1 sequence: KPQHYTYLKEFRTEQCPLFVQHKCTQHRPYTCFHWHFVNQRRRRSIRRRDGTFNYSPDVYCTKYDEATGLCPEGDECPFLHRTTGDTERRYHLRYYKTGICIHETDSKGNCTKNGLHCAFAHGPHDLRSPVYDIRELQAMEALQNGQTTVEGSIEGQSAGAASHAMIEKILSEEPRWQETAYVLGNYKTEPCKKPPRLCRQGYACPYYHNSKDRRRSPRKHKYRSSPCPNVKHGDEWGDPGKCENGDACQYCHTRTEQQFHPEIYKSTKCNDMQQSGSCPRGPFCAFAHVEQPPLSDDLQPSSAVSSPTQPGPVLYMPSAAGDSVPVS
Experiment: nsRBNS (natural sequence RNA bind-n-seq); RBNS binding buffer (assumed for nsRBNS): 25 mM Tris pH 7.5, 150 mM KCl, 3 mM MgCl2, 0.01% Triton X-100, 500 ug/ml BSA, 20 U/ml SUPERase-In, 4 C; UNK is unkempt and MSI1 is Musashi-1; names of the RNAs are library labels; protein concentration not given here; high values mean tight binding
In all, about 5,800 sequences were measured (“enrichment r”: median about 0.68, highest 2% from about 11 on). The full list was thinned out, with the highest values kept by preference.
measure: log10 of binding signal (log10 of the value in enrichment R)
Please note: log10 values; quantity binding signal; unit enrichment R.

Problem: Name the recorded log10 of binding signal for chr5:132541444:132541810:-|three_prime_utr|ENSG00000113525|control|control|control (ssRNA) RNA: GGGAGUUCUACAGUCCGACGAUCAAAUUGAUAUACUUUUUUCUUAUUUAACUUAACAUUCUGUAAAAUGUCUGUUAACUUAAUAGUAUUUAUGAAAUGGUUAAGAAUUUGGUAAAUUAGUAUUUAUUUAAUGUUAUGUUGUGUCAACAGAGGAUUGAGCAUCA .
Solution: 0.87

Problem: And what about the binder chr8:80637648:80637749:-|3pUTR|ENSG00000164684|unk|FALSE|unique (ssRNA) RNA: GGGAGUUCUACAGUCCGACGAUCUGCGCUUAGCUGCAAAGUGCCUGUCAGCAGCUCCAGGCACCAACAAGGUGCCCUUUUAUUAGACAAUUCCUGCCCGAACAUAACCAUAUUGCAGAUGAAAAUUUUCAAUAGAGAAUGACACAACAGAGGAUUGAGCAUCA ?
Solution: -0.01

Problem: And what about the binder chr2:223975255:223975490:-|3pUTR|ENSG00000135919|msi1|FALSE|bound_elsewhere (ssRNA) RNA: GGGAGUUCUACAGUCCGACGAUCUUUAAAUUCUUUUCCCCCAUCCCCCUCCAAAGUCUUGAUAGCAAGCGUUAUUUUGGUGGUAGAAACGGUGAAAUCUCUAGCCUCUUUGUGUUUUUGUUGUUGUUGUUGUUGUUGUUUUAUCAACAGAGGAUUGAGCAUCA ?
Solution: 0.39

Problem: And what about the binder chr7:56101660:56101848:-|3pUTR|ENSG00000106153|msi1|total|mutant (ssRNA) RNA: GGGAGUUCUACAGUCCGACGAUCUGGAGAGAUGGAAAAUCAGCUCUCAUAACUAAGUUAAUUCCGUAUAAAAACCGAAUUGACCGUGAGGGUAUAAAGUGUAACCAUCAGUUAAACCUCUCCUGUCAUUCCUGGCUUCCUUGCCAACAGAGGAUUGAGCAUCA ?
Solution: -0.60

Problem: And what about the binder chr19:41330322:41331077:-|three_prime_utr|ENSG00000105329|control|control|control (ssRNA) RNA: GGGAGUUCUACAGUCCGACGAUCGUCUGCACUAUUCCUUUGCCCGGCAUCAAGGCACAGGGGACCAGUGGGGAACACUACUGUAGUUAGAUCUAUUUAUUGAGCACCUUGGGCACUGUUGAAGUGCCUUACAUUAAUGAACUCCAACAGAGGAUUGAGCAUCA ?
Solution: 0.44

Problem: And what about the binder chr12:68660398:68660499:+|3pUTR|ENSG00000127314|msi1|FALSE|unique (ssRNA) RNA: GGGAGUUCUACAGUCCGACGAUCUUGAGGUGGCCAAAUGUAAACUAAAAGCCUUAAUUAAAGUGGUGCAAUUUUGUAUAACUUAGCAUCAGUAGUUCAAUAAAUUUGGAUUGCCAUGCAAGGGCUUGCAUUAUAAUUACUUGCCAACAGAGGAUUGAGCAUCA ?
Solution: -0.16

Problem: And what about the binder chr2:74214837:74214938:+|3pUTR|ENSG00000065911|msi1_unk|total|mutant (ssRNA) RNA: GGGAGUUCUACAGUCCGACGAUCCUGUCCUUUUGAGGCUCCGUCAGUUUAUUGGGAAAAUGUUCCGGAUUAUUCCUUGCUAUCCGUACUCAUUUUAUGUAUGUUACCCUUCAGUAAGUUCUCCCCAUUUCCGUUUUCCCGGACCAACAGAGGAUUGAGCAUCA ?
Solution: -0.47

Problem: And what about the binder chr11:85659139:85659240:-|3pUTR|ENSG00000137504|msi1|FALSE|unique (ssRNA) RNA: GGGAGUUCUACAGUCCGACGAUCGUCUGAUUUAGUAAAAUUUUAAAGCUAAAUAAUCUGAUGACUCUUGAAAGUUUAAUUGGUAGUAUGACAUUUAUGUUUUUUUCCCCCAGACUCACAGCCAAUACAAAGUUUUGAGACUCCCAACAGAGGAUUGAGCAUCA ?
Solution: 0.18

Problem: And what about the binder ENSG00000107863:be:win_4801|CDS|ENSG00000107863|bound_else_gene|NA|bound_elsewhere_windowed (ssRNA) RNA: GGGAGUUCUACAGUCCGACGAUCUCCAGUCGACUGAGCCCUGAGGUGCAAUCCGUGGCAGAGAGCAAGGGGGACGAGGCAGAUGACGAGAGAAGCGAACUCAUCAGUGAAGGGCGGCCUGUGGAAACCGACAGCGAGAGCGAGCAACAGAGGAUUGAGCAUCA ?
Solution: 0.00

Problem: And what about the binder ENSG00000137168:stop:overlap|stop_codon|ENSG00000137168|stop_codon|NA|stop_codon (ssRNA) RNA: GGGAGUUCUACAGUCCGACGAUCCAAACUCCCAGGACCGCCCUGUGGACGACGUGAAGAUCAUUAAGGCAUACCCUUCUGGGUAGACUUGCUACCCUCUUGAGCAGCUCUUCUGAGAUGGCCCCAGUGAACCAGCUUCUAGAUCAACAGAGGAUUGAGCAUCA ?
Solution: -0.15

Problem: And what about the binder chr19:13098382:13098626:+|3pUTR|ENSG00000008441|msi1|FALSE|unique (ssRNA) RNA: GGGAGUUCUACAGUCCGACGAUCACGCAGUAUAUACGAGUAUCUCUAUAUAUAGUACUAAUGGAUUUGGUGUGCUUCCCCCUUAGCGUCCCCCUCCCUCUGCUCCUCCUCCUUCAGCCUGGUCUCCCCCUCUUCUCUGCCCUCCAACAGAGGAUUGAGCAUCA ?
Solution: 0.30

Problem: And what about the binder chr15:100649042:100649144:+|3pUTR|ENSG00000183475|unk|FALSE|unique (ssRNA) RNA: GGGAGUUCUACAGUCCGACGAUCUACCUCUGCUUUUCUUUUGCUGUGCUCUUGUUUUUAACUUAUUUUUUUUUUAACAACUGUAGUACACUACCCUGAGACACUGCAUCUCGAUUUCUAUCUCUAGUUAGAGUUGUACUUUUACAACAGAGGAUUGAGCAUCA ?
Solution: 0.72

Problem: And what about the binder chr9:83661418:83661519:-|3pUTR|ENSG00000135018|msi1|FALSE|unique (ssRNA) RNA: GGGAGUUCUACAGUCCGACGAUCUAUAGUUGGGUGACCAGAUUUUGUCCUGCAUCUGUCCAGUUUAUUUGCUUUUUAAACAUUAGCCUAUGGUAGUAAUUUAUGUAGAAUAAAAGCAUUAAAAAGAAGCAAAUCAUUUGCACUCAACAGAGGAUUGAGCAUCA ?
Solution: 0.90
